# procedure text: blockers of ER-stress CHOP reporter expression – cell-based, unfolded protein response, luciferase reporter, primary screen (AID 2732);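 note: 0% = tunicamycin plus vehicle and 100% = wells without tunicamycin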
# experimental parameters: CHO-K1 CHOP-promoter luciferase, tunicamycin-induced, 15-18 h; at 10 µM; stronger effect = higher value
Among all 220,000 compounds or so, about 8,200 (3.7%) were called active. The sample as a whole holds a higher share of actives than the screen did.
measured quantity: inhibition (%)
Form entry: value (%) — number only.

# annotated cases, reported inhibition shown
Cn1c(O)c(C(=Nc2ccc(F)cc2)c2ccccc2)c(=O)n(C)c1=O; 2.66
O=C1NC(=O)N(Cc2ccco2)C(=O)/C1=C\c1ccc(-c2ccc(F)cc2)o1; 4.85
CN(C)c1ccc(/C=C2\CC3C4CC=C5CC(O)CCC5(C)C4CCC3(C)C2=O)cc1 (stereo not given); 96
COc1ccc2c(c1O)-c1cccc3c1[C@@H](C2)N(C)CC3; -0.63
C=CCN1CCC2(C)c3cc(O)ccc3CC1[C@@H]2C (stereo not given in full); 9.89

[in] Identify measured inhibition corresponding to O=c1[nH]c(=O)n(CCc2ccc(F)cc2)c(O)c1/C=N/N1CCCCC1
[out] 3.76

[in] Identify measured inhibition corresponding to CCN1CCN(c2ccc([N+](=O)[O-])cc2C#N)CC1
[out] 8.37

====

# procedure text: blockers of ER-stress CHOP reporter expression – cell-based, unfolded protein response, luciferase reporter, primary screen (AID 2732);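 note: 0% = tunicamycin plus vehicle and 100% = wells without tunicamycin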
# experimental parameters: CHO-K1 CHOP-promoter luciferase, tunicamycin-induced, 15-18 h; at 10 µM
The whole screen tested about 220,000 compounds, of which about 8,200 (3.7%) were called active.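 How the source made its calls: active means compounds that reduced the stress-induced luciferase reporter signal by more than about 70% of percent inhibition (limit read from the data); inactive means the rest.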 Many of the other results were omitted from the sample, so actives are more common in it than they were.
Respond using exactly one of the listed classes: active, inactive

Here's what some known entries look like.
O=C(O)C1C2CCC(O2)C1C(=O)O (stereo not drawn); inactive
CCCCCCCCCCCCn1ccc(=N)cc1; active
COc1cc(C(c2c(O)c3ccccc3oc2=O)c2c(C)n(C)n(-c3ccccc3)c2=O)ccc1O (stereo not drawn); inactive
CCOP(=O)(OCC)C(O)c1ccc(OC)cc1OC (stereo not drawn); inactive
CCC1(C)CC(CCNCc2ccc(N(C)C)cc2)(c2ccc(F)cc2)CCO1 (stereo not drawn); inactive
CCOC(=O)c1ncn2c1[C@@H]1CCCN1C(=O)c1cc(OC)ccc1-2; inactive
Cc1ccnc(-n2c(C)cc(/C=C3\C(=O)NC(=S)N(C)C3=O)c2C)c1; inactive
CC(=C1C(=O)c2ccccc2C1=O)N1CCN(CCN=Cc2c(O)n(C)c(=O)n(C)c2=O)CC1; inactive
O=C1NC(=O)N(CCc2ccc(F)cc2)C(=O)/C1=C/C=C/c1ccccc1; active
CCCCCn1c(=O)c(C(=O)NCc2ccccn2)c(O)c2ccccc21; inactive

[in] // return assay outcome for CN1CCN(C(=S)SCC(=O)Nc2ccc(Cl)cc2C(=O)c2ccccc2)CC1
[out] inactive

[in] // return assay outcome for CC(=O)N1CN2CN(C(C)=O)CC(C(=O)c3ccc(Br)cc3)(C2)C1
[out] inactive

[in] // return assay outcome for Cc1ccc(-n2c(C)cc(/C=C3\C(=O)NC(=O)N(C)C3=O)c2C)cc1C
[out] active

[in] // return assay outcome for O=c1[nH]c(=O)n(CCc2ccccc2)c(O)c1/C=N/N1CCOCC1
[out] inactive

[in] // return assay outcome for CCC(=O)CC(c1ccc([N+](=O)[O-])cc1)c1c(O)c2ccccc2oc1=O (stereo not drawn)
[out] inactive

[in] // return assay outcome for CC1(C)Cc2c(C#N)c(N3CCNCC3)nc(-c3ccco3)c2CS1
[out] inactive

[in] // return assay outcome for Cc1ccc(-n2c(-c3ccc([N+](=O)[O-])cc3)nc3ccccc3c2=O)cc1
[out] inactive

[in] // return assay outcome for COc1ccc(NC(=O)N2CCC3(CC2)OCCO3)c(OC)c1
[out] inactive

The measured values listed here are drawn from PubChem BioAssay AID2732.
